- protocol-details: human hepatoma cell viability loss – ATP luminescence, cytotoxicity control for P. falciparum antimalarial project, primary screen (AID 2303);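 also: 0% = DMSO wells and 100% = digitonin-killed cells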
- condition-description: HepG2 viability, 24-48 h, at 10 µM
Active and inactive are the calls of the source.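 The calls were made as follows: active = inhibition above 50%; inactive = the rest.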
Outcome codes: label 1 for active, label 0 for inactive

>>> print(df.to_string())
                                   molecule    class
0  COc1ccc(-c2nc(NC(=O)CS(=O)(=O)c3ccccc3)sc2C)cc1  label 0
1  COc1cc2c(C3CCN(CC4CCN(C(=O)/C=C/c5ccc(Cl)c(Cl)c5)CC4)CC3)c[nH]c2cn1  label 0
2  COc1cc(C)c(NC(=O)c2cccc3c(=O)c(C)c(-c4ccccc4)oc23)cc1OC  label 1
3  CC(CN1CCN(CC(c2ccc(F)cc2)N2CCN(C)CC2)CC1)C(=O)c1ccc(O)cc1 (stereo not given)  label 0
4            Cc1cc(NN=Cc2ccccc2F)c2ccccc2n1  label 0

* * *

- protocol-details: antimalarial activity against Dd2 strain (AID 2302);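 also: 0% = DMSO untreated growth and 100% = chloroquine plus artemisinin killed control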
- condition-description: P. falciparum Dd2 in RBCs, LDH growth readout, 72 h; at 2 µM; stronger effect = higher value
readout: growth inhibition (%)

                                   compound            readout  readout_units  observed
0  CO/C(=C\C=C\c1cc2cc(Cl)c(Cl)cc2[nH]1)C(=O)NC1C[C@H]2CCC[C@@H](C1)N2C (some centres undefined)  growth inhibition              %        51
1  COc1ccc(-c2ccc(NC(=O)c3ccc(F)cc3)cc2)cc1CN1CCCN(C)CC1  growth inhibition              %        35
2             NC(N)=NN=C1C=Cc2cccc3cccc1c23  growth inhibition              %        49
3  COc1ccc(Cl)cc1NC(=O)C(C)N1CCN(S(=O)(=O)c2ccccc2F)CC1 (centres undefined)  growth inhibition              %        66
4  CC(C)(C)CC(=O)Nc1ccc(Nc2cc(-c3ccncc3)cc3ncc(C(N)=O)cc23)cc1  growth inhibition              %        85
5  O=C(/C=C/c1ccc(Cl)c(Cl)c1)N1CCC(C(O)CN2CCC(c3c[nH]c4ccccc34)CC2)CC1 (centres undefined)  growth inhibition              %        46
6  O=C(N[C@@H](Cc1ccccc1)C(=O)NCCN1CCCCC1)c1ccc(O)c(-c2ccc(Cl)c(Cl)c2)c1  growth inhibition              %        97
7  CC(=O)Nc1ccc(OCCCCN(Cc2ccccc2C(F)(F)F)c2ccc(C(F)(F)F)c(C#N)c2)c(Cl)c1  growth inhibition              %        96
8  O=C(Nc1cccc([N+](=O)[O-])c1)N(Cc1ccc(Cl)c(Cl)c1)C1CCNCC1  growth inhibition              %        -2

* * *

- protocol-details: human hepatoma cell viability loss – ATP luminescence, cytotoxicity control for P. falciparum antimalarial project, primary screen (AID 2303);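 also: 0% = DMSO wells and 100% = digitonin-killed cells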
- condition-description: HepG2 viability, 24-48 h, at 10 µM, stronger effect = higher value
readout: inhibition (%)

                                   molecule  readout_units  observed
0  COc1cc2c(cc1N1C[C@@H](C)N[C@@H](C)C1)N(C(=O)c1ccc(-c3ccc(-c4ncc[nH]4)cc3C)cc1)CC2              %         7
1    O=C(Nc1ccc2c(c1)CCNCC2)Nc1ccc2ccccc2c1              %        -6
2  CN1CCC(NCc2cccc(-c3ccc(S(=O)(=O)NCc4ccccc4)c(F)c3)c2)CC1              %        94
3  Cc1cc(OCC2CCN(c3ncc(C(=O)Nc4ccccc4)cc3Cl)CC2)ccc1F              %        27
4  COc1ccc(Nc2cc(C)c3cc(NC(=O)c4ccncc4)ccc3n2)cc1              %         0
5  O=C(Nc1ccccc1Cl)N(Cc1cc(Cl)cc(Cl)c1)CC(O)COc1ccc(Cl)c(F)c1 (centres undefined)              %         0
6  c1ccc(Oc2ccc(Nc3ccnc4cc(-c5cccc(CN6CCOCC6)c5)ccc34)cc2)cc1              %        14
7  CCc1cc2c(O)c([N+](=O)[O-])c(=O)oc2cc1OCCCCCOc1cc2oc(=O)c([N+](=O)[O-])c(O)c2cc1CC              %        11
8  CCc1c(CCNCCCCCNCCc2ccc(OC)c(OC)c2CC)ccc(OC)c1OC              %        59

* * *

- protocol-details: antimalarial activity against Dd2 strain (AID 2302);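 also: 0% = DMSO untreated growth and 100% = chloroquine plus artemisinin killed control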
- condition-description: P. falciparum Dd2 in RBCs, LDH growth readout, 72 h; at 2 µM
Calls of active or inactive are those of the source.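 How the source made its calls: active means growth inhibition above 50% at the single 2 µM test dose, taken to imply half-maximal potency below 2 µM; inactive means the rest.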
Outcome codes: 1 (yes) = active, 0 (no) = inactive

>>> print(df.to_string())
                                    compound    class
 0  O=C(N[C@@H](Cc1ccccc1)C(=O)NCCN1CCOCC1)c1ccc(O)c(-c2ccc(Cl)c(Cl)c2)c1   0 (no)
 1  CCN(CC)CCN(Cc1ccc(-c2ccc(C(F)(F)F)cc2)cc1)C(=O)Cn1c(CCc2c(F)cc(F)cc2F)nc(=O)c2ccccc21   0 (no)
 2  COc1ccc(N(c2nc(-c3cc(Cl)ccc3Cl)cs2)C2CCNC2)cc1 (centres undefined)   0 (no)
 3  COc1ccccc1CC1CCCN(C2CCC(NC(=O)c3cc4ccccc4[nH]3)CC2)C1 (centres undefined)   0 (no)
 4  CO/C(=C\C=C\c1cc2cc(Cl)c(Cl)cc2[nH]1)C(=O)NCCCNC12CC3CC(CC(C3)C1)C2  1 (yes)
 5  COc1cc2nc(C)nc(Nc3ccc(Oc4ccccc4)cc3)c2cc1OC  1 (yes)
 6  COc1ccc2c(c1)ncn2-c1cc(OCc2ccncc2Br)c(C(N)=O)s1  1 (yes)
 7  CC(C)=C(C(=O)OCc1ccccc1)N1C(=O)[C@@H](NC(c2ccccc2)(c2ccccc2)c2ccccc2)[C@H]1[S@@](=O)CC(=O)OC(C)(C)C  1 (yes)
 8  Fc1ccc2nc(-c3ccc(-c4ccc(CN5CCC(CCN6CCCCC6)CC5)cc4)cc3)[nH]c2c1  1 (yes)
 9  COc1ccc(-c2ccccc2CNc2nc(NCCc3ccc(O)cc3)nc(N3CCNCC3)n2)cc1   0 (no)
10              Nc1nc(N)c2c(ccc3nccc32)[nH]1   0 (no)
11  O=C(Nc1ccc(Oc2ccccc2)cc1)N(CCN1CCCC1)Cc1ccc(-c2ccc(CN3CCNCC3)cc2)cc1  1 (yes)
12  O=C(Nc1cccc(-c2ccc(-c3nc4ccccc4[nH]3)cc2)c1)Nc1ccc2c(c1)OCO2   0 (no)
13  Clc1ccc(CNc2ccnc(NCCc3coc4ccccc34)n2)c(Cl)c1   0 (no)
14  COc1cc2c(cc1OC)CC(NCCCCCCNCCc1ccc(Cl)cc1)CC2 (centres undefined)   0 (no)
15  O=C(Nc1cccc(-c2cccc(-c3nc4ccc(F)cc4[nH]3)c2)c1)c1ccncc1   0 (no)
16  COc1ccc(CN2CCCN(Cc3cccc(NC(=O)c4cc5ccccc5s4)c3)CC2)cc1   0 (no)
17  Cc1cccc2[nH]c(-c3ccc(-c4cccc(NC(=O)c5cncn5C)c4)s3)nc12   0 (no)
18  N#Cc1ccc(C(=O)Nc2ccc(Cl)c(N3CCN(CCc4ccccc4)CC3)c2)cc1   0 (no)
19  Cc1cccc2[nH]c(-c3cccc(-c4ccc(NC(=O)C(C)C(=O)NC(C)C)cc4)c3)nc12 (centres undefined)   0 (no)
20  CC(C)C1C(O)=C(c2ccc3ccccc3c2)C(=O)N1Cc1ccsc1 (centres undefined)  1 (yes)
21  CCS(=O)(=O)N1CCN(c2nc(-c3ccccc3)nc(COC)c2Cc2ccccc2F)CC1   0 (no)
22  c1cc(Nc2nc(-c3ccc(-c4csc(Nc5ccncc5)n4)cc3)cs2)ccn1  1 (yes)
23       CSc1nc2nc(C)c(Cc3cccc(F)c3)c(C)n2n1   0 (no)
24  CCN(CCCN1CCCCC1)c1cc(C)nc(Nc2ccc(Br)cc2F)n1   0 (no)
25  COC(=O)c1cc(NC(=O)Nc2ccc(Cn3ncc(N4CCCNCC4)c(Cl)c3=O)cc2)cc(C(=O)OC)c1  1 (yes)
26  COC(=O)c1ccc(CCCNCC(O)c2cccc(C(F)(F)F)c2)cc1 (centres undefined)  1 (yes)
27  COc1ccc2c(=O)ccn(CCN3CCC(NCc4ccc5c(n4)NC(=O)CS5)CC3)c2c1  1 (yes)
28  Cc1ccc(S(=O)(=O)N(CCCNCc2cccc(O)c2)c2ccccc2)cc1  1 (yes)
29              NC(N)=NN=CC(=O)Nc1ccc(Br)cc1   0 (no)
30         CC(C)Cc1nc(N)nc(N)c1-c1ccc(Cl)cc1   0 (no)
31  N#Cc1ccc(N2CCN(Cc3ccc(-c4ccc(-c5nc6ccccc6[nH]5)s4)cc3)CC2)nc1  1 (yes)
32  COc1cccc(C(=O)Nc2ccc(-c3nc4ccccc4[nH]3)cc2)c1   0 (no)
33  CCCN(CC1CC1)c1ncc(-c2ccccc2CNCc2ccccc2O)cn1  1 (yes)
34  CC(C)COc1ccc(Cl)cc1Cc1nc(-c2nc3nc(N4CCN(C)CC4)ccc3[nH]2)cs1   0 (no)
35  COc1cccc(NC(=O)c2cc([N+](=O)[O-])ccc2NC(=O)CN2CCc3ccccc3C2)c1   0 (no)
36  Cc1cc(N2CCCN(CC3CCCCC3)CC2)nc(Nc2ccc(Br)cc2)n1  1 (yes)
37  Oc1ccc(CCNc2nc(NCc3ccccc3-c3ccccc3)nc(N3CCCNCC3)n2)cc1   0 (no)
38  CCCCCN1CCC(NC(=O)c2ccc(C(=O)Nc3ccc(C(C)C)cc3)cc2)C1 (centres undefined)   0 (no)

This collection of values is drawn from PubChem BioAssay.
